- target: T1, A647-SsoSSB A114C (Sulfolobus solfataricus, UniProt Q97W73 1-148, A114C)
- T1 sequence: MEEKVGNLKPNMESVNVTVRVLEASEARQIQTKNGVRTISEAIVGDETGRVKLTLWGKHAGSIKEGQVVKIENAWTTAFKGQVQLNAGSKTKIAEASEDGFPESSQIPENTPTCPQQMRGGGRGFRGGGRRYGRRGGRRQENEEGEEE
- test_summary: fluorescence self-quenching titration; 10 mM KCl; Hill 1.4 ± 0.2 in text; Fig 2 legend gives 20 ± 1 nM, Hill 1.3; 50 mM Tris-HCl pH 7.6, 10 mM KCl, 5% glycerol, 0.1 mg/ml BSA, 5-50 nM DNA, 20 C (PIFE also 65 C)
- run_parameters: protein: recombinant; chain copies: 2; single strand
metric_name: pKd
One number for each entry, as −log10 of the molar value.

So what does the record say about pKd for CCCCCCCCCCCC (ssDNA) [dC12] ? 7.66

FYI, the data here is from paper PMC4678828.
